A collection of variants and their measured self-cleavage
B1: HDV Ribozyme (parent)
chain: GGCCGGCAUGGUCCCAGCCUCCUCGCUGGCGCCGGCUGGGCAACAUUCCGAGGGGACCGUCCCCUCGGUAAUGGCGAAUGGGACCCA

Variants of: B1
Experiment: self-cleavage, relative activity (ratio to wild type); higher = more cleavage; co-transcriptional

G6A C36U | 0.286
U27C G55C | 0.847
G31A A45U | 0.185
G6A A42U | 0.283

Input: Entry under review: C30A C75U . Reported self-cleavage?
Output: 0.101

Input: Again, but for G38U G55A
Output: 0.137

Input: Would you kindly repeat that for C19G G35C ?
Output: 0.208

Input: And for C21U C24U ?
Output: 0.0287

Input: Same thing, different variant: C32G G35A
Output: 0.154

Input: Do the same for C14U C62G please
Output: 0.751
